Please provide measured EC50 for the entries that follow.
- Test system: HeLa cells
- protocol.notes: cells
- Format: cell-based
- particulars: Homo sapiens, HeLa, S2 Table; HeLa; 20 = no response at highest concentration; read-out: CellCycle G2/M

IN: Checklist item: EC50 tested on HeLa cells, entry COC(=O)Nc1nc2ccc(Sc3ccccc3)cc2[nH]1 [Fenbendazole] , value?
OUT: 0.195 µM

IN: Checklist item: EC50 tested on HeLa cells, entry OC[C@H]1O[C@@H](n2cnc3c(S)ncnc32)[C@H](O)[C@@H]1O [Thioinosine] , value?
OUT: > 10 µM

IN: Checklist item: EC50 tested on HeLa cells, entry Clc1ccc(Nc2nnc(Cc3ccncc3)c3ccccc23)cc1 [vatalanib, reference compound] , value?
OUT: > 10 µM

IN: Checklist item: EC50 tested on HeLa cells, entry O=c1[nH]c(=O)n([C@H]2C[C@H](O)[C@@H](CO)O2)cc1I [idoxuridine] , value?
OUT: > 10 µM

IN: Checklist item: EC50 tested on HeLa cells, entry CNC(=O)c1cc(Oc2ccc(NC(=O)Nc3ccc(Cl)c(C(F)(F)F)c3)cc2)ccn1 [Sorafenib tosilate] , value?
OUT: > 10 µM

IN: Checklist item: EC50 tested on HeLa cells, entry CC[C@@]1(O)C(=O)OCc2c1cc1n(c2=O)Cc2cc3c(CN(C)C)c(O)ccc3nc2-1 [topotecan] , value?
OUT: > 10 µM

IN: Checklist item: EC50 tested on HeLa cells, entry CC(=O)N(O)CCCCCNC(=O)CCC(=O)N(O)CCCCCNC(=O)CCC(=O)N(O)CCCCCN [Deferoxamine] , value?
OUT: > 10 µM

IN: Checklist item: EC50 tested on HeLa cells, entry CCCCc1ccc2[nH]c(NC(=O)OC)nc2c1 [parbendazole] , value?
OUT: 0.0106 µM

---

Please provide measured GSK3b inh pretreated_Viability ATP HCT116 IC50/EC50 for the entries that follow.
- Tested on: HCT116 cells treated with a GSK3β inhibitor
- protocol.notes: cells
- Format: cell-based
- particulars: assay number 26; GSK3b inhibitor pretreated

IN: Need GSK3b inh pretreated_Viability ATP HCT116 IC50/EC50 of C=Cc1c(C)c2cc3nc(cc4[nH]c(cc5nc(cc1[nH]2)C(C)=C5CCC(=O)O)c(CCC(=O)OC)c4C)[C@@]1(C)C3=CC=C(C(=O)OC)[C@@H]1C(=O)OC , thanks.
OUT: 4.2601 µM

IN: Need GSK3b inh pretreated_Viability ATP HCT116 IC50/EC50 of CN1CCC(=C2c3ccccc3C=Cc3ccccc32)CC1 , thanks.
OUT: > 20 µM

IN: Need GSK3b inh pretreated_Viability ATP HCT116 IC50/EC50 of COc1cccc2c1C(=O)c1c(O)c3c(c(O)c1C2=O)C[C@@](O)(C(=O)CO)CC3OC1CC(N2CCOC(OC)C2)C(O)C(C)O1 (some centres unmarked) , thanks.
OUT: 0.001 µM

IN: Need GSK3b inh pretreated_Viability ATP HCT116 IC50/EC50 of C/C(=N\O)[C@@H](C)NCC(C)(C)CN[C@H](C)/C(C)=N/O , thanks.
OUT: > 20 µM

IN: Need GSK3b inh pretreated_Viability ATP HCT116 IC50/EC50 of CCC1Nc2cc(Cl)c(S(N)(=O)=O)cc2S(=O)(=O)N1 (centres unmarked) , thanks.
OUT: > 20 µM

IN: Need GSK3b inh pretreated_Viability ATP HCT116 IC50/EC50 of Cc1ccc([N+](=O)[O-])[c]2c1[O][Hg]2 , thanks.
OUT: > 2.2222 µM

IN: Need GSK3b inh pretreated_Viability ATP HCT116 IC50/EC50 of Clc1ccc(CCC(Cn2ccnc2)Sc2c(Cl)cccc2Cl)cc1 (centres unmarked) , thanks.
OUT: 0.8414 µM

IN: Need GSK3b inh pretreated_Viability ATP HCT116 IC50/EC50 of CCCCN1CCCC1C(=O)Nc1c(C)cc(C)cc1C (centres unmarked) , thanks.
OUT: > 20 µM

---

- System: endothelial tube formation in co-cultures of ECFCs and ADSCs treated with VEGF
- protocol.notes: cells
- Assay type: cell-based, human
- particulars: Homo sapiens, read-out: Anti-Angiogenesis
observed.property: log10 IC50 (log10 of the value in µM)
Hi team, quick reminder: these entries are log10 of IC50 (µM).

IN: Need log10 IC50 of COc1ccc(-c2ccc3cc(C(=O)O)ccc3c2)cc1C12CC3CC(CC(C3)C1)C2 [Adapalene] , thanks.
OUT: -0.28

IN: Need log10 IC50 of Oc1c(I)cc(I)c2cccnc12 [Diiodohydroxyquinoline] , thanks.
OUT: 0.38

IN: Need log10 IC50 of COC(=O)Nc1nc2ccc(C(=O)c3ccccc3)cc2[nH]1 [Mebendazole] , thanks.
OUT: -0.43

IN: Need log10 IC50 of COc1cc(-c2ccc(=O)[nH]n2)ccc1OC(F)F [Zardaverine] , thanks.
OUT: 0.09

IN: Need log10 IC50 of CC[C@]1(O)C[C@H]2CN(CCc3c([nH]c4ccccc34)[C@@](C(=O)OC)(c3cc4c(cc3OC)N(C=O)[C@H]3[C@@](O)(C(=O)OC)[C@H](OC(C)=O)[C@]5(CC)C=CCN6CC[C@]43[C@@H]65)C2)C1 [vincristine] , thanks.
OUT: -2.19

IN: Need log10 IC50 of COc1cc(NCc2ccc3nc(N)nc(N)c3c2C)cc(OC)c1OC [trimetrexate, reference compound] , thanks.
OUT: 0.65

IN: Need log10 IC50 of O=c1[nH]c(=O)n([C@H]2C[C@H](O)[C@@H](CO)O2)cc1F [Floxuridine] , thanks.
OUT: -1.67

IN: Need log10 IC50 of Nc1nc2nc[nH]c2c(=S)[nH]1 [Tioguanine] , thanks.
OUT: -0.21

---

- System: DLD-1
- protocol.notes: cells
- Type: cell-based
- particulars: assay number 23
Please provide measured Basal_Viability ATP DLD-1 IC50/EC50 for the entries that follow.

IN: Need Basal_Viability ATP DLD-1 IC50/EC50 of COC(=O)C1=C(C)NC(C)=C(C(=O)O[C@@H]2CCCN(Cc3ccccc3)C2)[C@@H]1c1cccc([N+](=O)[O-])c1.Cl [NCGC00185768-01] , thanks.
OUT: 7.9596 µM

IN: Need Basal_Viability ATP DLD-1 IC50/EC50 of CC(C)NCC(O)COc1ccc(CCOCC2CC2)cc1 (centres unmarked) [NCGC00015159-11] , thanks.
OUT: > 20 µM

IN: Need Basal_Viability ATP DLD-1 IC50/EC50 of COc1cc(NCc2ccc3nc(N)nc(N)c3c2C)cc(OC)c1OC [NCGC00161419-05] , thanks.
OUT: 0.1951 µM

IN: Need Basal_Viability ATP DLD-1 IC50/EC50 of COc1ccc(CN2CCN(C(c3ccc(F)cc3)c3ccc(F)cc3)CC2)c(OC)c1OC.Cl.Cl [NCGC00164543-02] , thanks.
OUT: 3.1331 µM

IN: Need Basal_Viability ATP DLD-1 IC50/EC50 of Cc1ccc2nc(N)[nH]c(=O)c2c1Sc1ccncc1.Cl.Cl [NCGC00263580-01] , thanks.
OUT: > 20 µM

IN: Need Basal_Viability ATP DLD-1 IC50/EC50 of CC=CC1=C(C(=O)O)N2C(=O)[C@@H](NC(=O)[C@H](N)c3ccc(O)cc3)[C@H]2SC1 [NCGC00159513-03] , thanks.
OUT: > 20 µM

IN: Need Basal_Viability ATP DLD-1 IC50/EC50 of CCCCCCCCCCCCCC[N+](C)(C)C.[Br-] [NCGC00166121-03] , thanks.
OUT: 0.4746 µM

IN: Need Basal_Viability ATP DLD-1 IC50/EC50 of Clc1ccc(CCC(Cn2ccnc2)Sc2c(Cl)cccc2Cl)cc1 (centres unmarked) [NCGC00179596-03] , thanks.
OUT: 1.8367 µM

---

- Test system: endothelial tube formation in co-cultures of ECFCs and ADSCs treated with VEGF
- protocol.notes: cells
- Type: cell-based, human
observed.property: VEGF_ADSC\ECFC Angio CD31 TubeArea IC50/EC50

IN: Need VEGF_ADSC\ECFC Angio CD31 TubeArea IC50/EC50 of Cc1nc(Nc2ncc(C(=O)Nc3c(C)cccc3Cl)s2)cc(N2CCN(CCO)CC2)n1 , thanks.
OUT: > 10 µM

IN: Need VEGF_ADSC\ECFC Angio CD31 TubeArea IC50/EC50 of CCN(CC)C(=O)/C(C#N)=C/c1cc(O)c(O)c([N+](=O)[O-])c1 , thanks.
OUT: > 10 µM

IN: Need VEGF_ADSC\ECFC Angio CD31 TubeArea IC50/EC50 of Cc1ccc(C(=O)Oc2ccc(C(O)CNC(C)(C)C)cc2OC(=O)c2ccc(C)cc2)cc1 (stereo not drawn) , thanks.
OUT: > 10 µM

IN: Need VEGF_ADSC\ECFC Angio CD31 TubeArea IC50/EC50 of CC(COc1ccccc1)NN (stereo not drawn) , thanks.
OUT: > 10 µM

IN: Need VEGF_ADSC\ECFC Angio CD31 TubeArea IC50/EC50 of C[C@@H]1C[C@@H]([C@H](O)CC2CC(=O)NC(=O)C2)C(=O)[C@@H](C)C1 , thanks.
OUT: 1.1486 µM

IN: Need VEGF_ADSC\ECFC Angio CD31 TubeArea IC50/EC50 of O=C(O)c1ccc2[nH]cc(CCCCN3CC=C(c4ccccc4)CC3)c2c1 , thanks.
OUT: > 10 µM

IN: Need VEGF_ADSC\ECFC Angio CD31 TubeArea IC50/EC50 of CSc1ccc2c(c1)C(N1CCN(C)CC1)Cc1ccccc1S2 (stereo not drawn) , thanks.
OUT: > 10 µM

IN: Need VEGF_ADSC\ECFC Angio CD31 TubeArea IC50/EC50 of CC(=O)c1ccc(OCC(=O)N2CCCCC2)cc1 , thanks.
OUT: > 10 µM

IN: Need VEGF_ADSC\ECFC Angio CD31 TubeArea IC50/EC50 of CN1CCN(C2Cc3ccccc3Sc3ccc(Cl)cc32)CC1.O=C(O)/C=C\C(=O)O (stereo not drawn) , thanks.
OUT: 5.2302 µM
